- test protocol: qHTS RealTime-Glo MT Cell Viability Assay in HepG2 cells - 0 hour (AID 1224889); note: nearly all actives have a fitted effect of over 50% in size
- study conditions: RealTime-Glo luminescence; series mostly up to 76.8 µM
Results filed as inconclusive are left out. Calls of active or inactive are those of the source. Calls come from the whole dose curve; as a rule, active = well fitted cell-killing curve with a large enough effect in the repeat runs; inconclusive = weak or mixed curves, or effect the other way; inactive = flat fitted curve, though single readings scatter.
Log the outcome using a class from active, inactive

Ask: // return assay outcome for Nc1ccc(S(N)(=O)=O)cc1
Result: inactive

====

- test protocol: A CellTox Green Cytotoxicity Assay to monitor cytotoxicity in HEK293 cells - 24 hour (AID 1224875); note: nearly all actives have a fitted effect of over 45% in size
- study conditions: CellTox Green fluorescence; series mostly up to 76.8 µM
Results filed as inconclusive are left out. Active and inactive are the calls of the source. The call rests on the fitted dose curve; in most records, active means well fitted activation curve with a large enough effect in the repeat runs; inconclusive means weak or mixed curves; inactive means flat fitted curve, though single readings scatter.
Choose one outcome from this list and give only that: 1.0 = active, 0.0 = inactive

Known results for molecules:
| molecule | group |
| --- | --- |
| O=S1(=O)OC(c2ccc(O)cc2)(c2ccc(O)cc2)c2ccccc21 | 0.0 |
| NC(=O)c1cccnc1 | 0.0 |
| NC(CO)(CO)CO | 0.0 |

Ask: GET /call?item= C[C@](N)(Cc1ccc(O)c(O)c1)C(=O)O returns the recorded outcome of this test.
Result: 0.0

Ask: Status in this test for Nc1c2c(nc3ccccc13)CCCC2 ?
Result: 0.0

Ask: Please share the test call associated with CN1CCC[C@H]1c1cccnc1 .
Result: 0.0

Ask: Which outcome was entered for the molecule CN(C)CCOC(C)(c1ccccc1)c1ccccn1 (centres undefined) in this test?
Result: 0.0

====

- test protocol: qHTS assay to identify small molecule HDAC inhibitors - cell viability counter screen (AID 1259365); note: nearly all actives have a fitted effect of over 50% in size
- study conditions: HCT-116 viability, CellTiter-Glo ATP luminescence, 2 h; series mostly up to 92.4 µM
Activity calls are given as the source filed them. Calls follow the shape of the dose curve; as a rule, active = well fitted cell-killing curve with a large enough effect in the repeat runs; inconclusive = weak or mixed curves, or effect the other way; inactive = flat fitted curve, though single readings scatter.
Would you mind answering with one of these outcomes? T (active), F (inactive)

Ask: Record lookup: outcome of this test for CCc1nc(N)nc(N)c1-c1ccc(Cl)cc1 ?
Result: F

====

- test protocol: qHTS assay to identify small molecule antagonists of the retinoid acid receptor (RAR) signaling pathway - cell viability counter screen (AID 1159551); note: nearly all actives have a fitted effect of over 35% in size; note: potency is the fitted concentration of half-maximal effect
- study conditions: C3RL4 cells viability, ATP luminescence (CellTiter-Glo), 6 h; series mostly up to 92.4 µM
Results filed as inconclusive are left out. The source made the active and inactive calls. Calls come from the whole dose curve; as a rule, active = well fitted cell-killing curve with a large enough effect in the repeat runs; inconclusive = weak or mixed curves, or effect the other way; inactive = flat fitted curve, though single readings scatter.
readout type: Potency

// known answers, use as guide
| chem smiles | result |
| --- | --- |
| Nc1c(N=Nc2ccc(-c3ccc(N=Nc4cc(S(=O)(=O)O)c5ccccc5c4N)cc3)cc2)cc(S(=O)(=O)O)c2ccccc12 | 17.2 µM (active) |
| C=CCc1ccc(O)c(OC)c1 | inactive |
| CN(C)CCOC(c1ccccc1)c1ccccc1 | inactive |
| Cn1c(=O)c2c(ncn2C)n(C)c1=O | inactive |
| CCCC[P+](CCCC)(CCCC)CCCC | inactive |

Ask: Look up Potency for this compound: CCN(Cc1c(F)cccc1Cl)c1c([N+](=O)[O-])cc(C(F)(F)F)cc1[N+](=O)[O-]
Result: inactive

====

- assayed system: Thyrotropin-releasing hormone receptor (Homo sapiens) (UniProt P34981)
- Sequence (P34981 whole entry, looked up): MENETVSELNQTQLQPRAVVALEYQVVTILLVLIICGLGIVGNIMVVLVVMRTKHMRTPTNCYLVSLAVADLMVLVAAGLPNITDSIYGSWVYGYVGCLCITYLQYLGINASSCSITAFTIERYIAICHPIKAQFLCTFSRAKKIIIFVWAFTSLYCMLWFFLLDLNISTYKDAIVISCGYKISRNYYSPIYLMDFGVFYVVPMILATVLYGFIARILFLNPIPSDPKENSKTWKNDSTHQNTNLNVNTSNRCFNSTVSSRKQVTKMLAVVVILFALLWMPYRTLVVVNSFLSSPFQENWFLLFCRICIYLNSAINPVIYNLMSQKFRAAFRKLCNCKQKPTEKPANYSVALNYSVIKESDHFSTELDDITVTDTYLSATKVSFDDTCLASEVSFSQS
- test protocol: qHTS assay to identify small molecule agonists of the thyrotropin-releasing hormone receptor (TRHR) signaling pathway (AID 1346891)
- study conditions: TRHR-HEK293 calcium fluorescence, agonist mode; series mostly up to 57.6 µM
The source made the active and inactive calls. Calls come from the whole dose curve.
Pick from 1 (active), -1 (inactive) when you respond.

Ask: What call does the record list for CN1CCc2cccc3c2[C@H]1Cc1ccc(O)c(O)c1-3 ?
Result: -1

Ask: Name the outcome recorded for C/C=C/C=C/C(=O)O in the assay.
Result: -1

Ask: What outcome does the record of this test show for CN(C)C(=S)SC(=S)N(C)C ?
Result: -1

Ask: Outcome? Nc1ccc(O)c([N+](=O)[O-])c1
Result: -1

Ask: State the result this test recorded for CCCCCCCC(=O)OCC(COC(=O)CCCCCCC)OC(=O)CCCCCCC .
Result: -1

Ask: So what was the verdict on C1=CC2C3C=CC(C3)C2C1 (configuration not stated) in this test?
Result: 1

Ask: What did the test return for C[C@](N)(Cc1ccc(O)c(O)c1)C(=O)O ?
Result: -1

Ask: Assay result, entry CCOC(N)=O — outcome?
Result: -1
